Let's look at some compounds and their measured IC50.
Tested on: 35 kDa protein
Assay type: binding, human
measurement context: read-out: IC50 for displacement of photolabeling of the 35 kDa band; [32P]-5N3-8-ethynyl-NAADP (0.23 nM) photoprobe, U2OS cell extracts, densitometry
Value and unit, in that order.

compound	IC50
NC(=O)c1ccc[n+]([C@@H]2O[C@H](COP(=O)([O-])OP(=O)(O)OC[C@H]3O[C@@H](n4cnc5c(N)ncnc54)[C@H](OP(=O)(O)O)[C@@H]3O)[C@@H](O)[C@H]2O)c1	0.94 µM

## Input Reported IC50, compound Nc1ncnc2c1ncn2[C@@H]1O[C@H](COP(=O)(O)OP(=O)(O)OCC2OC([n+]3cccc(C(=O)[O-])c3)C(O)C2O)[C@@H](O)[C@H]1OP(=O)(O)O (stereo in doubt) : ____
## Output 0.213 µM
